# Assay target: Enoyl-acyl-carrier protein reductase (Plasmodium falciparum, UniProt Q965D5)
# Sequence (Q965D5 whole entry): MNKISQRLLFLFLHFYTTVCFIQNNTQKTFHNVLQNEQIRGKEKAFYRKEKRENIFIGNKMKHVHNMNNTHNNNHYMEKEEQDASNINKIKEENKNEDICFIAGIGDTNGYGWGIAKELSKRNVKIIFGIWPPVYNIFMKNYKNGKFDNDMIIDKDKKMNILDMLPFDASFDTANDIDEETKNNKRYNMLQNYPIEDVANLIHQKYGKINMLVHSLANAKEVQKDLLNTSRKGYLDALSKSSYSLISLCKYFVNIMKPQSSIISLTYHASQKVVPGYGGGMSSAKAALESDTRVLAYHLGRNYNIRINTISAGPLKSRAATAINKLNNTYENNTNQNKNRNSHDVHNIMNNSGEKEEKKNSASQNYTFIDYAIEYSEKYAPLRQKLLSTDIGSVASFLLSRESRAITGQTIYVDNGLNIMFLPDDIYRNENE
Parameter IC50: see the listing below.

- Line notation: "O=c1cc(-c2ccc(O)c(O)c2)oc2cc(O[C@@H]3O[C@H](CO)[C@@H](O)[C@H](O)[C@H]3O)cc(O)c12"
  Measure unit: "µM"
  IC50: 22.3
- Line notation: "OCC1=C[C@@H]2OCC[C@@H]2[C@@H]1CO"
  Measure unit: "µM"
  IC50: 588
